These data points were gathered from paper PMC5540273.

tested on: RIOK1; conditions: concentration: 1 μM, replicates: in singlicate; n = 1;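 note: KINOMEscan kinase panel screen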
Class (required): determined from %Inh; valid ranges are lower level = under 10%, middle level = from 10% up to 40%, upper level = 40% and over

Consider the following illustrative entries.
[
  {
    "Compound": "N#Cc1cnc2cc(-c3cnc(CNCCN4CCOCC4)s3)ccc2c1Nc1ccc(Oc2ccccc2)cc1 [GW664114]",
    "Measured target": "RIOK1",
    "Group": "middle level"
  },
  {
    "Compound": "O=C(Nc1c(F)cccc1F)c1cc(C(=O)c2ccccc2F)c[nH]1 [GSK1326180]",
    "Measured target": "RIOK1",
    "Group": "middle level"
  },
  {
    "Compound": "Cn1cc(-c2ccc3c(c2)CCN3C(=O)Cc2cc(F)cc(C(F)(F)F)c2)c2c(N)ncnc21 [GSK2635225]",
    "Measured target": "RIOK1",
    "Group": "middle level"
  },
  {
    "Compound": "O=C(O)C(F)(F)F.O=c1[nH]ccc2nc(N[C@@H]3CCNC3)nc(Nc3ccc4c(c3)S(=O)(=O)CC4)c12 [GSK2181306]",
    "Measured target": "RIOK1",
    "Group": "upper level"
  },
  {
    "Compound": "Cl.Cl.NCC(NC(=O)c1cc(-c2cccnc2)c(-c2ccnc3[nH]ccc23)s1)c1ccccc1 (stereo not shown) [GSK1323434]",
    "Measured target": "RIOK1",
    "Group": "upper level"
  }
]

Prompt line: Which class holds Cc1ccc(-c2ccc3occ(-c4ccc(S(C)=O)cc4)c3c2)nn1 (stereo not shown) ?
Response line: lower level

Prompt line: Would you kindly repeat that for COc1cc(Nc2nccc(N3CCC(NS(=O)(=O)c4ccc(NC(C)=O)cc4)CC3)n2)cc(OC)c1OC [GSK1379825] ?
Response line: upper level

Prompt line: Would you kindly repeat that for Cc1cccc(Nc2nc(NCCN)ncc2C(N)=O)c1 [GSK1292139] ?
Response line: upper level
